# Test system: HepG2-A16-CD81EGFP cells
# measurement.protocol: cells
# test.context: Homo sapiens, HepG2, read-out: % inhibition
Think of 90% as a floor: if inhibition at 50 µM stands on it or above, it is 1 (yes); beneath it, 0 (no).

// query Check if inhibition at 50 µM >= 90% (inclusive). Item: COc1ccc(-c2cc(=O)oc3c4c(ccc23)OCN(Cc2ccc(F)cc2)C4)cc1
// result 0 (no)

// query Check if inhibition at 50 µM >= 90% (inclusive). Item: CCOc1c(Cl)cc(CNC(C)C(O)c2ccccc2)cc1OC (centres unmarked)
// result 1 (yes)

// query Check if inhibition at 50 µM >= 90% (inclusive). Item: Cc1cc(C)cc(Nc2cc(C)nc3nc(C(F)(F)F)nn23)c1
// result 0 (no)

// query Check if inhibition at 50 µM >= 90% (inclusive). Item: Cc1ccc(Nc2nc(NCCO)c3ccccc3n2)cc1C
// result 1 (yes)

// query Check if inhibition at 50 µM >= 90% (inclusive). Item: COc1ccc(CCNC(=O)c2cc(S(=O)(=O)N3CC(C)CC(C)C3)ccc2Sc2ccc(F)cc2)cc1OC (centres unmarked)
// result 0 (no)
